B1: glmS ribozyme (parent)
chain: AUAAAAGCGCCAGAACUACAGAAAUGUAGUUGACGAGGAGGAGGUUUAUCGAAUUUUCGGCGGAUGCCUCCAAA

# Variants of: B1
# MEASUREMENT NOTES: self-cleavage kobs at 40 uM GlcN6P; higher = faster cleavage; RNA array
# COND: with glucosamine-6-phosphate
This sample holds only a part of the variants without activity.
I'd appreciate it if you could supply self-cleavage kobs at 40 uM GlcN6P values for the items below.
One number for each entry, in s⁻¹.

The following variants have reported results that may help.
Give a short answer stating reported self-cleavage kobs at 40 uM GlcN6P for "AUAAAAGCGCCAGAACUACAGAAAUGUAGUUGACGAGGAGGAGGUGUAUCGAAUUUUCGGCGGAUGCCUCGAAA" .
4.15e-05

Give a short answer stating reported self-cleavage kobs at 40 uM GlcN6P for "AUAAAAGCGCCAGAACUACAGAAAUGUAGUUGACGAGGAGGAGGUUUAUCGAAUUUUCGGCGGAUGCCCCGAAA" .
3.93e-05

Give a short answer stating reported self-cleavage kobs at 40 uM GlcN6P for "AUAAAAGCGCCAGAACUACAGAAAUGUAGUUGACGAGGAGGAGGUUUAUCGAAUUUUCGGCGGAGGCUUCCAAA" .
5.31e-05

Give a short answer stating reported self-cleavage kobs at 40 uM GlcN6P for "AUAAAAGCGCCUGAACUACAGAAAUGUAGUUGACGAGGAGGAGGUUUAUCGAAAUUUCGGCGGAUGCCACCAAA" .
0.000126

# context switch: different variant, same self-cleavage kobs at 40 uM GlcN6P
Give a short answer stating reported self-cleavage kobs at 40 uM GlcN6P for "AUAAAAGCGCCAGAACUACAGAAAUGUAGUUGACGAGGCGGAGGUUUAUCGAAUCUUCGGCGGAUGCCUCCAAA" .
0.000127

Origin of measurements: the supplement of paper PMC7125110
